Where these numbers come from: patent US20220073604A1

system-name: T1, eukaryotically produced human IL-6 (human, UniProt P05231 30-212)
T1 construct: also called eukIL-6; Euk IL-6
protocol-summary: SPR; periplasmic fraction; against parental 29B11
endpoint: fold improvement kd (fold)
Give bare numbers, in fold.

Examples with their reported fold improvement kd follow.
Fab 55H1 (Fab, V domains shown, VL-shuffled Fab of 29B11, periplasmic fraction; also called 55H1c) VH: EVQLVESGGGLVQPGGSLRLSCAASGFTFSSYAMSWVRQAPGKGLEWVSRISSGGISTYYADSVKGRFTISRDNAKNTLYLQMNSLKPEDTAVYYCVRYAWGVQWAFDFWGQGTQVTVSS VL: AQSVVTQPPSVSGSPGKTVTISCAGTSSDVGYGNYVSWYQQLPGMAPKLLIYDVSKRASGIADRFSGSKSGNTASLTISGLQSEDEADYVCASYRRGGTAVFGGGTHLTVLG	0.92
Fab 55E2 (Fab, V domains shown, VL-shuffled Fab of 29B11, periplasmic fraction; also called 55E2b) VH: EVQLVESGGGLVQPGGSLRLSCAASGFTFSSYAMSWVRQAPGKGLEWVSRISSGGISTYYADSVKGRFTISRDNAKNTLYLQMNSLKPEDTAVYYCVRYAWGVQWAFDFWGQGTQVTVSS VL: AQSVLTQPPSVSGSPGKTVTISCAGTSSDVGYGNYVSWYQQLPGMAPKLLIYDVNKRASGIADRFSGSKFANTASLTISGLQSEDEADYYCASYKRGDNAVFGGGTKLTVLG	1.56

Lab note: next binder to report on.
Determine from records and report fold improvement kd for Fab 47C2 (Fab, V domains shown, VL-shuffled Fab of 29B11, periplasmic fraction; also called 47C2 (R4)) VH: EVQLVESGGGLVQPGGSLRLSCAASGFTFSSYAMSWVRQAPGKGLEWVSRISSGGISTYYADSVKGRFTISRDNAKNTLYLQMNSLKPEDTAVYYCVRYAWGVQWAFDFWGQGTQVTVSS VL: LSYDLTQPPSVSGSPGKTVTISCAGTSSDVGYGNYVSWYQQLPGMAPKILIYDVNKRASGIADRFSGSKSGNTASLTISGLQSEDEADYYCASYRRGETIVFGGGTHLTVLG
0.43
